The values you see were collected from the supplement of paper PMC10567573.

B1: BTBD1 (parent)
chain: FVLGKGRGAAAAGGPQRIPAHRFV

# Variants of: B1
# experiment.description: protein stability index of a GFP-peptide fusion (GPS, HEK-293T) (PSI 1-6); higher = more stable;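 further: lentivirally expressed fusions sorted by FACS into six bins by GFP to DsRed ratio, PSI derived from sequencing read proportions per bin multiplied by bin number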
# cond: c terminus: a fixed tail appended
quantity: protein stability index
One number for each entry.

{"mutation.label": "R7T", "observed": 2.23}
{"mutation.label": "I18Y", "observed": 1.74}
{"mutation.label": "K5V", "observed": 1.38}
{"mutation.label": "R17H", "observed": 1.86}
{"mutation.label": "K5I", "observed": 1.75}
{"mutation.label": "Q16G", "observed": 1.87}

Hey, can you go through the list below and give me protein stability index for every item?
1. A11S
2. A20H
3. G8D
4. A10H
5. G4C
6. A20R
7. A11T

Result:
1: 2.58; 2: 2.4; 3: 2.13; 4: 1.68; 5: 1.54; 6: 1.35; 7: 1.52
